Provenance of the data: paper PMC9295122

SYSTEM_NAME: PmSiaT (Proteus mirabilis)
Construct: made in house
Sequence (B4EZY7 1-496): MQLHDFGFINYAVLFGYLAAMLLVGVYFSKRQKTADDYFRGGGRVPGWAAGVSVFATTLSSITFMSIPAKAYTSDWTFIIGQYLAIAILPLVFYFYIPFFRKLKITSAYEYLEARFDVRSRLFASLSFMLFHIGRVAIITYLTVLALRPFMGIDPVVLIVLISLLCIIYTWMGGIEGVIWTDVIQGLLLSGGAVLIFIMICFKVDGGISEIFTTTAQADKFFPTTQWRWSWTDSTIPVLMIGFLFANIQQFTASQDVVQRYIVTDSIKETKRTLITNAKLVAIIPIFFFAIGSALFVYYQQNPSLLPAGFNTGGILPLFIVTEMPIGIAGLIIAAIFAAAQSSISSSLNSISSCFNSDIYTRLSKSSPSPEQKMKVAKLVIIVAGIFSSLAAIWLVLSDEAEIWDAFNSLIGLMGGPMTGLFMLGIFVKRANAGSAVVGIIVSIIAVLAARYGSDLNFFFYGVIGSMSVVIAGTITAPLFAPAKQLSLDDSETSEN
EXPERIMENT_SUMMARY: nanoDSF thermal shift assay, PmSiaT
Type: binding
EXPERIMENTAL_CONTEXT: PmSiaT, experiment 1, first capillary, 1.25 mM
PROPERTY: Tm 1 (°C)

COMPOUND	Tm 1 / °C
CC(C)C(=O)NC1C(O)CC(O)(C(=O)O)OC1C(O)C(O)CO (stereo not drawn) [Compound 6b]	47.1
CC(=O)NC1C(OCc2ccc(C#N)cc2)CC(O)(C(=O)O)OC1C(O)C(O)CO (stereo not drawn) [Compound 3d]	55.2
CC(=O)NC1C(OCc2ccc(F)cc2)CC(O)(C(=O)O)OC1C(O)C(O)CO (stereo not drawn) [Compound 3b]	53.1

---

SYSTEM_NAME: PmSiaT (Proteus mirabilis, UniProt B4EZY7)
Construct: made in house
Sequence (B4EZY7 1-496): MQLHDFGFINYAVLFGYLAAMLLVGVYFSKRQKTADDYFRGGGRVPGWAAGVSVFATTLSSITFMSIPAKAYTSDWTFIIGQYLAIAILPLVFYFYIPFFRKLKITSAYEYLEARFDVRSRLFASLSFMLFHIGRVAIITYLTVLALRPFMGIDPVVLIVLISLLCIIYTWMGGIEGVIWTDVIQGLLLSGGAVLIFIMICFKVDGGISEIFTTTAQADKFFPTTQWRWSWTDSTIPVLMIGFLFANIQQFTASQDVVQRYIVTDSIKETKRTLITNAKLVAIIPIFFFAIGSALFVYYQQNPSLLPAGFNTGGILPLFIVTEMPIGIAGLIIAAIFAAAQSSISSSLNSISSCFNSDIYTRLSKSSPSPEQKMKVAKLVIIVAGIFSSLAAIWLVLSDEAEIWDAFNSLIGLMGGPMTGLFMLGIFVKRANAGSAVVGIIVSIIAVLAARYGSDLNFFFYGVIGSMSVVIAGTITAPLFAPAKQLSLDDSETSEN
EXPERIMENT_SUMMARY: nanoDSF thermal shift assay, PmSiaT
Format: binding
EXPERIMENTAL_CONTEXT: PmSiaT Tm, average of experiment 2
PROPERTY: Average 2 (°C)

MOLECULE	Average 2 / °C
CC(=O)N[C@H]1[C@H]([C@H](O)[C@H](O)CO)OC(O)(C(=O)O)C[C@@H]1O (stereo partly shown) [Neu5Ac, 5-N-acetyl neuraminic acid, reference compound]	49.2
CC(=O)NC1C(OCc2ccc(F)cc2)CC(O)(C(=O)O)OC1C(O)C(O)CO (stereo not shown) [Compound 3b]	53.2
[N-]=[N+]=NCC(=O)N[C@H]1[C@H]([C@H](O)[C@H](O)CO)O[C@@](O)(C(=O)O)C[C@@H]1O [Compound 6h, reference compound]	49.0
CC(=O)NC1C(O)CC(O)(C(=O)O)OC1C(O)C(O)CI (stereo not shown) [Compound 8e]	47.2
CC(=O)NC1C(O)CC(O)(C(=O)O)OC1C(O)C(O)CBr (stereo not shown) [Compound 8d]	47.2
CCSCC(O)C(O)C1OC(O)(C(=O)O)CC(O)C1NC(C)=O (stereo not shown) [Compound 8b]	45.9
O=C(CCl)NC1C(O)CC(O)(C(=O)O)OC1C(O)C(O)CO (stereo not shown) [Compound 6g]	49.9

---

SYSTEM_NAME: SaSiaT (Staphylococcus aureus, UniProt A0A0H2XJ46)
Sequence (A0A0H2XJ46 entry or part of it): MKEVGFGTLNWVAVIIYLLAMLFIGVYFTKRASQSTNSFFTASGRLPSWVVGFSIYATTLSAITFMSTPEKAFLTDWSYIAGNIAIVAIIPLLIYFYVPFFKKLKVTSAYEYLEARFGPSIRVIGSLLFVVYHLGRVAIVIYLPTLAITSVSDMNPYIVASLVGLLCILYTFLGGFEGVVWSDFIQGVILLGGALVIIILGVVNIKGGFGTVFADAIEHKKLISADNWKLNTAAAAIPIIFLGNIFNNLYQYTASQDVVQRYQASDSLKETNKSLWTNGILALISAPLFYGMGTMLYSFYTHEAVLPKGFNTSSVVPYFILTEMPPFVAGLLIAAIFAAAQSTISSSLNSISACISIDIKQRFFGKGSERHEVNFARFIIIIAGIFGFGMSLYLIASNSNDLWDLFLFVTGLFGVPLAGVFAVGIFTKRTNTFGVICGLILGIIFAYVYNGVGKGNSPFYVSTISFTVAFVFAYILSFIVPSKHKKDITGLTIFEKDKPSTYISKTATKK
EXPERIMENT_SUMMARY: nanoDSF thermal shift assay, SaSiaT
Format: binding
EXPERIMENTAL_CONTEXT: SaSiaT, experiment 2, first capillary, 1.25 mM
Experimental: Nano-differential scanning fluorimetry (nanoDSF) is a high-throughput method that relies on the thermal stabilization of the folded protein state by a bound ligand.[33] The melting points of protein–inhibitor complexes were measured on a Prometheus NT.48 instrument from NanoTemper Technologies. […] The fluorescence was recorded at 330 and 350 nm and as a ratio of the two wavelengths. […] The melting temperatures have been measured in 3 separate experiments. […] This is calculated from Average 1. […]
PROPERTY: Tm2 (°C)

COMPOUND	SYSTEM_NAME	Tm2 (°C)
CC(=O)N[C@H]1[C@H]([C@H](O)[C@H](O)CO)OC(C(=O)O)=C[C@@H]1O [Compound 9, reference compound]	SaSiaT (Staphylococcus aureus, UniProt A0A0H2XJ46)	45.2
CC(=O)NC1C(OCc2ccccc2)CC(O)(C(=O)O)OC1C(O)C(O)CO (stereo not drawn)	SaSiaT (Staphylococcus aureus, UniProt A0A0H2XJ46)	55.7
CC(=O)NC1C(O)CC(O)(C(=O)O)OC1C(O)C(O)CN=[N+]=[N-] (stereo not drawn)	SaSiaT (Staphylococcus aureus, UniProt A0A0H2XJ46)	47.4
CCC(=O)NC1C(O)CC(O)(C(=O)O)OC1C(O)C(O)CO (stereo not drawn)	SaSiaT (Staphylococcus aureus, UniProt A0A0H2XJ46)	42.0
O=C(Cc1ccccc1)NC1C(O)CC(O)(C(=O)O)OC1C(O)C(O)CO (stereo not drawn)	SaSiaT (Staphylococcus aureus, UniProt A0A0H2XJ46)	51.0
CSCC(O)C(O)C1OC(O)(C(=O)O)CC(O)C1NC(C)=O (stereo not drawn)	SaSiaT (Staphylococcus aureus, UniProt A0A0H2XJ46)	49.3
CCSCC(O)C(O)C1OC(O)(C(=O)O)CC(O)C1NC(C)=O (stereo not drawn)	SaSiaT (Staphylococcus aureus, UniProt A0A0H2XJ46)	48.5
CC(=O)NC1C(O)CC(O)(C(=O)O)OC1C(O)C(C)O (stereo not drawn)	SaSiaT (Staphylococcus aureus, UniProt A0A0H2XJ46)	43.0
CC(=O)NC1C(OCc2cc(Br)cc(Br)c2)CC(O)(C(=O)O)OC1C(O)C(O)CO (stereo not drawn)	SaSiaT (Staphylococcus aureus, UniProt A0A0H2XJ46)	54.0
CC(=O)NC1C(OCc2ccc(Br)cc2)CC(O)(C(=O)O)OC1C(O)C(O)CO (stereo not drawn)	SaSiaT (Staphylococcus aureus, UniProt A0A0H2XJ46)	53.5
CC(C)(C)C(=O)NC1C(O)CC(O)(C(=O)O)OC1C(O)C(O)CO (stereo not drawn)	SaSiaT (Staphylococcus aureus, UniProt A0A0H2XJ46)	44.2
CC(=O)NC1C(O)CC(O)(C(=O)O)OC1C(O)C(O)CBr (stereo not drawn)	SaSiaT (Staphylococcus aureus, UniProt A0A0H2XJ46)	49.9
O=C(NC1C(O)CC(O)(C(=O)O)OC1C(O)C(O)CO)c1ccccc1 (stereo not drawn)	SaSiaT (Staphylococcus aureus, UniProt A0A0H2XJ46)	45.4
CC(=O)NC1C(OCc2ccc(F)cc2)CC(O)(C(=O)O)OC1C(O)C(O)CO (stereo not drawn)	SaSiaT (Staphylococcus aureus, UniProt A0A0H2XJ46)	56.3
O=C(CCl)NC1C(O)CC(O)(C(=O)O)OC1C(O)C(O)CO (stereo not drawn)	SaSiaT (Staphylococcus aureus, UniProt A0A0H2XJ46)	49.4

---

SYSTEM_NAME: SaSiaT (Staphylococcus aureus, UniProt A0A0H2XJ46)
EXPERIMENT_SUMMARY: nanoDSF thermal shift assay, SaSiaT
Assay type: binding
EXPERIMENTAL_CONTEXT: SaSiaT Tm, experiment 3, second capillary, 1.25 mM
PROPERTY: Replicate 3 (°C)

COMPOUND	UNIT_SYMBOL	Replicate 3
CSCC(O)C(O)C1OC(O)(C(=O)O)CC(O)C1NC(C)=O (stereo not shown)	°C	50.4
CC(=O)NC1C(O)CC(O)(C(=O)O)OC1C(O)C(O)CI (stereo not shown)	°C	49.1
O=C(Cc1ccccc1)NC1C(O)CC(O)(C(=O)O)OC1C(O)C(O)CO (stereo not shown)	°C	51.1
CCSCC(O)C(O)C1OC(O)(C(=O)O)CC(O)C1NC(C)=O (stereo not shown)	°C	49.6
CC(=O)N[C@H]1[C@H]([C@H](O)[C@H](O)CO)OC(O)(C(=O)O)C[C@@H]1O (stereo partly shown) [Neu5Ac, 5-N-acetyl neuraminic acid, reference compound]	°C	51.0
O=C(CCl)NC1C(O)CC(O)(C(=O)O)OC1C(O)C(O)CO (stereo not shown)	°C	48.9
CC(=O)NC1C(O)CC(O)(C(=O)O)OC1C(O)C(O)CCl (stereo not shown)	°C	49.6
